B1: Caulobacter ParB omega fusion; a variant is named by its letters at X, in order, B8GW30 (parent)
chain: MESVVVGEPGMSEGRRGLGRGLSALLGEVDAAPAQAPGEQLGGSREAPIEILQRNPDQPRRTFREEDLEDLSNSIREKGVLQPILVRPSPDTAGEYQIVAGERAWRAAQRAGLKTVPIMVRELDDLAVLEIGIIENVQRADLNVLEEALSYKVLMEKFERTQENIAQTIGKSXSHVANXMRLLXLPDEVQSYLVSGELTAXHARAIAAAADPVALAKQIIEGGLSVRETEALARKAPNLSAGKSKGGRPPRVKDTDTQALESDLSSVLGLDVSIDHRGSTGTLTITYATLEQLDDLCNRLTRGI

# Variants of: B1
# method.summary: one-hybrid fitness for binding NBS DNA (the Noc-binding site; scaled: cognate 1, non-cognate 0); higher = stronger binding
# particulars: with NBS DNA site
In all, about 81,000 sequences were measured (“one-hybrid fitness for binding NBS DNA”: median about -0.1, highest 2% from about 0.36 on). The sample as a whole holds a higher share of the highest values than the screen did.
List of one-hybrid fitness for binding NBS DNA values.

A selection of reference data follows.
>  <mutation.spec>
QMTR

>  <one-hybrid fitness for binding NBS DNA>
0.568

$$$$
>  <mutation.spec>
GMNC

>  <one-hybrid fitness for binding NBS DNA>
≤ 0.2

$$$$
>  <mutation.spec>
QMTP

>  <one-hybrid fitness for binding NBS DNA>
≤ 0.2

$$$$

Consider the variant QVTD and give its measured one-hybrid fitness for binding NBS DNA.
≤ 0.2

All figures here come from a collection of fitness landscapes (doi:10.1016/j.celrep.2020.107928).
